test system: HeLa Kyoto; assay: melting temperature (median over replicates), in situ; higher = more thermally stable; details: cell cycle stage: mitosis;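 further: HeLa Kyoto cells synchronized by double thymidine or nocodazole block, proteins quantified by TMT10plex mass spectrometry, three independent biological replicates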
Below: a set of entries, each annotated with reported melting temperature.
READOUT: melting temperature (°C)

{"ITEM SEQUENCE": "MAATLLAARGAGPAPAWGPEAFTPDWESREVSTGTTIMAVQFDGGVVLGADSRTTTGSYIANRVTDKLTPIHDRIFCCRSGSAADTQAVADAVTYQLGFHSIELNEPPLVHTAASLFKEMCYRYREDLMAGIIIAGWDPQEGGQVYSVPMGGMMVRQSFAIGGSGSSYIYGYVDATYREGMTKEECLQFTANALALAMERDGSSGGVIRLAAIAESGVERQVLLGDQIPKFAVATLPPA [PSMB6]", "OBSERVED MEASUREMENT": 59.6}
{"ITEM SEQUENCE": "MSRPLITRSPASPLNNQGIPTPAQLTKSNAPVHIDVGGHMYTSSLATLTKYPESRIGRLFDGTEPIVLDSLKQHYFIDRDGQMFRYILNFLRTSKLLIPDDFKDYTLLYEEAKYFQLQPMLLEMERWKQDRETGRFSRPCECLVVRVAPDLGERITLSGDKSLIEEVFPEIGDVMCNSVNAGWNHDSTHVIRFPLNGYCHLNSVQVLERLQQRGFEIVGSCGGGVDSSQFSEYVLRRELRRTPRVPSVIRIKQEPLD [KCTD1]", "OBSERVED MEASUREMENT": 55.9}
{"ITEM SEQUENCE": "MAERGRKRPCGPGEHGQRIEWRKWKQQKKEEKKKWKDLKLMKKLERQRAQEEQAKRLEEEEAAAEKEDRGRPYTLSVALPGSILDNAQSPELRTYLAGQIARACAIFCVDEIVVFDEEGQDAKTVEGEFTGVGKKGQACVQLARILQYLECPQYLRKAFFPKHQDLQFAGLLNPLDSPHHMRQDEESEFREGIVVDRPTRPGHGSFVNCGMKKEVKIDKNLEPGLRVTVRLNQQQHPDCKTYHGKVVSSQDPRTKAGLYWGYTVRLASCLSAVFAEAPFQDGYDLTIGTSERGSDVASAQLPNFRHALVVFGGLQGLEAGADADPNLEVAEPSVLFDLYVNTCPGQGSRTIRTEEAILISLAALQPGLIQAGARHT [C9ORF114]", "OBSERVED MEASUREMENT": 51.8}
{"ITEM SEQUENCE": "MTSLTQRSSGLVQRRTEASRNAADKERAAGGGAGSSEDDAQSRRDEQDDDDKGDSKETRLTLMEEVLLLGLKDREGYTSFWNDCISSGLRGCMLIELALRGRLQLEACGMRRKSLLTRKVICKSDAPTGDVLLDEALKHVKETQPPETVQNWIELLSGETWNPLKLHYQLRNVRERLAKNLVEKGVLTTEKQNFLLFDMTTHPLTNNNIKQRLIKKVQEAVLDKWVNDPHRMDRRLLALIYLAHASDVLENAFAPLLDEQYDLATKRVRQLLDLDPEVECLKANTNEVLWAVVAAFTK [GOLPH3]", "OBSERVED MEASUREMENT": 51.5}
{"ITEM SEQUENCE": "MEEVPHDCPGADSAQAGRGASCQGCPNQRLCASGAGATPDTAIEEIKEKMKTVKHKILVLSGKGGVGKSTFSAHLAHGLAEDENTQIALLDIDICGPSIPKIMGLEGEQVHQSGSGWSPVYVEDNLGVMSVGFLLSSPDDAVIWRGPKKNGMIKQFLRDVDWGEVDYLIVDTPPGTSDEHLSVVRYLATAHIDGAVIITTPQEVSLQDVRKEINFCRKVKLPIIGVVENMSGFICPKCKKESQIFPPTTGGAELMCQDLEVPLLGRVPLDPLIGKNCDKGQSFFIDAPDSPATLAYRSIIQRIQEFCNLHQSKEENLISS [NUBP1]", "OBSERVED MEASUREMENT": 52.7}
{"ITEM SEQUENCE": "MPKHEFSVDMTCGGCAEAVSRVLNKLGGVKYDIDLPNKKVCIESEHSMDTLLATLKKTGKTVSYLGLE [ATOX1]", "OBSERVED MEASUREMENT": 52.8}
